Here, each record is paired with measured EC50 data.
target: APJ receptor (Homo sapiens (Human), UniProt P35414); experiment: [35S]GTPγS binding assay on membranes from CHO cells stably expressing human APJ receptor; conditions: membranes of CHO cells stably expressing human APJ receptor, means of several independent experiments, read-out: Activity hAPJ SPA EC50 IP
Sequence (P35414 whole entry): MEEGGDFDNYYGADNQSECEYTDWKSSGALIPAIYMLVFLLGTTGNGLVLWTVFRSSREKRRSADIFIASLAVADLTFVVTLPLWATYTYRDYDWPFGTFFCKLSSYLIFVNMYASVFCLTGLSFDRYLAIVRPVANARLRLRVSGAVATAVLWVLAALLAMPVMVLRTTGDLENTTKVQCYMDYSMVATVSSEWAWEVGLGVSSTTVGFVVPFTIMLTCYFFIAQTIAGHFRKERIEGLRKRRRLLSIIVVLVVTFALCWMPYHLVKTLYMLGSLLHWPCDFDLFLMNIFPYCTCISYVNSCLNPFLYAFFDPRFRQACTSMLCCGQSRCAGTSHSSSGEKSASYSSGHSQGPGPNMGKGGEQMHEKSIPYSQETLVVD
Express it in nM; write the number only.

> print(dat)
                                   compound                           systemundertest  recordedmeasurement
1  COc1cccc(OC)c1-n1c(NS(=O)(=O)CCc2ncc(Cl)cc2CCN2CC[C@H](O)C2)nnc1-c1ccco1  APJ receptor (Homo sapiens (Human), UniProt P35414)                 0.59
2  COc1cccc(OC)c1-n1c(NS(=O)(=O)c2cccc([C@H](C)O)c2)nnc1-c1ccc(C)o1 (single isomer, unassigned)  APJ receptor (Homo sapiens (Human), UniProt P35414)                   11
3  COc1cccc(OC)c1-n1c(NS(=O)(=O)[C@H](C)[C@H](O)c2cccc(Cl)n2)nnc1-c1ccc(C)o1 (stereo in doubt)  APJ receptor (Homo sapiens (Human), UniProt P35414)                 0.17
4  Cc1ccc(-c2nnc(NS(=O)(=O)[C@@H](C)[C@H](C)c3ncc(F)cn3)n2C2CCOCC2)o1  APJ receptor (Homo sapiens (Human), UniProt P35414)                   26
5  COc1cccc(OC)c1-n1c(NS(=O)(=O)[C@@H](C)[C@](C)(N)c2ncc(F)cn2)nnc1-c1ccc(C)o1 (single isomer, unassigned) [Example 243.0]  APJ receptor (Homo sapiens (Human), UniProt P35414)                 0.87

IN: Can you share its EC50? I mean this compound: COc1cccc(OC)c1-n1c(NS(=O)(=O)[C@@H](C)[C@@H](O)c2cc3ccccn3n2)nnc1-c1ccc(C)o1 (single isomer, unassigned) [Example 271.0]
OUT: 0.62

IN: Which measured EC50 value corresponds to COc1cccc(OC)c1-n1c(NS(=O)(=O)[C@H](C)[C@H](O)c2ccccn2)nnc1-c1ccc(C)o1 (stereo in doubt) ?
OUT: 3.9

IN: # query: EC50 of entry COc1cccc(OC)c1-n1c(NS(=O)(=O)[C@@H]2CC[C@@H](O)[C@H](O)C2)nnc1-c1ccc(C)o1 (single isomer, unassigned) [Example 406.0]
OUT: 67

----------
The following compounds are shown together with reported EC50 values.
target: APJ receptor (Homo sapiens (Human), UniProt P35414); experiment: [35S]GTPγS binding assay on membranes from CHO cells stably expressing human APJ receptor; conditions: membranes of CHO cells stably expressing human APJ receptor, means of several independent experiments, read-out: Activity hAPJ SPA EC50 IP
Write the number in nM without appending the unit.

// solved cases for EC50 follow
compound	systemUnderTest	EC50 / nM
COc1cccc(OC)c1-n1c(NS(=O)(=O)[C@@H](C)[C@](C)(F)c2ncc(C#N)cn2)nnc1-c1ccc(C)o1 (single isomer, unassigned) [Example 230.0]	APJ receptor (Homo sapiens (Human), UniProt P35414)	0.41
COc1cccc(OC)c1-n1c(NS(=O)(=O)C[C@@H](C)c2ncc(F)cn2)nnc1-c1ccc(C)o1 (racemic) [Example 127.0]	APJ receptor (Homo sapiens (Human), UniProt P35414)	0.65
COc1cccc(OC)c1-n1c(NS(=O)(=O)[C@@H]2COCC[C@@H]2O)nnc1-c1ccc(C)o1 (single isomer, unassigned) [Example 404.0]	APJ receptor (Homo sapiens (Human), UniProt P35414)	36
CCN(CC)C(=O)c1cc(Cl)cnc1C[C@@H](C)S(=O)(=O)Nc1nnc(-c2ccco2)n1-c1c(OC)cccc1OC (single isomer, unassigned) [Example 21.0]	APJ receptor (Homo sapiens (Human), UniProt P35414)	0.31
COc1cccc(OC)c1-n1c(NS(=O)(=O)[C@H](C)CN2C(=O)CCC[C@]2(C)C#N)nnc1-c1ccco1 (single isomer, unassigned) [Example 342.0]	APJ receptor (Homo sapiens (Human), UniProt P35414)	121

IN: Need EC50, item COc1cccc(OC)c1-n1c(NS(=O)(=O)[C@@H](C)[C@@H](O)c2ccc(C)cn2)nnc1-c1ccc(C)o1 (single isomer, unassigned) [Example 63.0]
OUT: 0.24

IN: Name the reported EC50 value associated with the compound COC[C@H]1CCCC(=O)N1C[C@@H](C)S(=O)(=O)Nc1nnc(-c2ccc(C)o2)n1-c1c(OC)cccc1OC (single isomer, unassigned) [Example 185.0]
OUT: 33

----------
molecular target: APJ receptor (Homo sapiens (Human), UniProt P35414); assay: [35S]GTPγS binding assay on membranes from CHO cells stably expressing human APJ receptor; details: membranes of CHO cells stably expressing human APJ receptor, means of several independent experiments, read-out: Activity hAPJ SPA EC50 IP
parameter: EC50

compound	EC50
COc1cccc(OC)c1-n1c(NS(=O)(=O)[C@@H](C)[C@H](O)c2ccc(C#N)cc2F)nnc1-c1ccc(C)o1 (single isomer, unassigned) [Example 61.0]	0.2 nM

IN: What measured EC50 is associated with COc1cccc(OC)c1-n1c(NS(=O)(=O)[C@H](C)Cc2cncnc2)nnc1-c1ccco1 (single isomer, unassigned) on APJ receptor (Homo sapiens (Human), UniProt P35414)?
OUT: 72 nM

IN: Query EC50 on APJ receptor (Homo sapiens (Human), UniProt P35414) for COc1cccc(OC)c1-n1c(NS(=O)(=O)[C@H](C)[C@@H](O)c2coc(C)n2)nnc1-c1ccc(C)o1 (single isomer, unassigned) [Example 303.0]
OUT: 13 nM

IN: Find the measured EC50: item COc1cccc(OC)c1-n1c(NS(=O)(=O)[C@@H](C)Cc2ncc(F)cn2)nnc1-c1ccco1 (single isomer, unassigned) , target or system APJ receptor (Homo sapiens (Human), UniProt P35414).
OUT: 1 nM

IN: Recall the recorded EC50 for COc1cccc(OC)c1-n1c(NS(=O)(=O)[C@H](C)[C@@H](C)c2ncc(F)cn2)nnc1-c1ccc(C)o1 with APJ receptor (Homo sapiens (Human), UniProt P35414) and state it.
OUT: 0.87 nM

IN: What value of EC50 on APJ receptor (Homo sapiens (Human), UniProt P35414) does COc1cccc(OC)c1-n1c(NS(=O)(=O)[C@@H]2CCCN(C(=O)N(C)C)C2)nnc1-c1ccco1.COc1cccc(OC)c1-n1c(NS(=O)(=O)[C@H]2CCCN(C(=O)N(C)C)C2)nnc1-c1ccco1 (mixture of isomers) have?
OUT: 19 nM
